Below, each entry is listed alongside its reported binding signal.
Target: TDP-43 (Homo sapiens, UniProt Q13148 1-414)
Sequence (Q13148 whole entry): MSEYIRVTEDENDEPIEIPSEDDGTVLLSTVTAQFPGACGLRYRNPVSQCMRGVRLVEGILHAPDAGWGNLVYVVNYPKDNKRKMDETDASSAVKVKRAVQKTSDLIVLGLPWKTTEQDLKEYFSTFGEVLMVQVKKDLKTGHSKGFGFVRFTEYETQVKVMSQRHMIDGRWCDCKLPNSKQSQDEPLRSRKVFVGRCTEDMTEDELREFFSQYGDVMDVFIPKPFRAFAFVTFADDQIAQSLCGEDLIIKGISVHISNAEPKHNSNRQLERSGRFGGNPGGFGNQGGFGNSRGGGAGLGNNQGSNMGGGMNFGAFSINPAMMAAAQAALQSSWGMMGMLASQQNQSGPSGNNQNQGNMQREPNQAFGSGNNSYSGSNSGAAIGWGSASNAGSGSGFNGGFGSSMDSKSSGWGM
Test: RNA Bind-n-Seq with designed 260-mer pool; 25 mM Tris-HCl, 150 mM KCl, 3 mM MgCl2, BSA (printed 500 mg/mL), 20 units/mL SUPERase IN; pH not stated; 500 nM RNA pool, 1 h, 4 C; TDP-43 5, 50, 500 nM; high values mean tight binding
Settings: protein: recombinant; tags: SBP (GST cleaved off with PreScission; pGEX-GST-SBP)
Whole data set: some 9,900 sequences, median “r (bound/input frequency ratio)” near 0.7, cut for the highest 2% near 6.5. What follows is part of a selection rich in the highest values, with near analogues and random picks from the rest.

Report binding signal, nothing else, for this binder: ENSMUSG00000022095.183|Fam160b2 (ssRNA) RNA: GGGAGUUCUACAGUCCGACGAUCGCUUCGAUAUCCGCAUGCUACGGCGCCAGGCAUUACCUCACAACAGGCCUGCAGUUGUUGGCUUCCCUCCUGGGCAAGGAGGAGCAGGCCAGAGCCCCUUUUGCUUCCUUUUCCUGCCCAUGCCACCUCUCGAAGCCGGGCACAGGUUGCCAGGAGGUGACAUGAAAGAGGAGGAAACUCCAUGACCUCUACAUCCCCCGCAGUCCUCCCAGCGGGGGAGGACUUCUCUGCUGCUCCGAAGAACAUCAUGCACUCCUGUGUGUGUGUGUGAGUGUGUGUGCUCUUGCGGUCGCACUAGUGUGGAAUUCUCGGGUGUCAAGG
1.73 R (bound/input frequency ratio)

Consider the record given below.
Supply measured binding signal of ENSMUSG00000022095.186|Fam160b2|219:232;234:260 (ssRNA) RNA: GGGAGUUCUACAGUCCGACGAUCGCUUCGAUAUCCGCAUGCUACACAACAGGCCUGCAGUUGUUGGCUUCCCUCCUGGGCAAGGAGGAGCAGGCCAGAGCCCCUUUUGCUUCCUUUUCCUGCCCAUGCCACCUCUCGAAGCCGGGCACAGGUUGCCAGGAGGUGACAUGAAAGAGGAGGAAACUCCAUGACCUCUACAUCCCCCGCAGUCCUCCCAGCGGGGGAGGACUUCUCUGCUGCUCCGAAGAACAUCAUGCACUCCACACACACACACACACACACACACACACACACACACACACACCUCUUGCGGUCGCACUAGUGUGGAAUUCUCGGGUGUCAAGG in your reply.
2.91 R (bound/input frequency ratio)
